// reported ΔTm for each item listed
Test system: Nucleic Acid
Assay: Binding affinity to HSP90A quadruplex DNA assessed as change in melting temperature at 2 uM by FRET melting assay
Format: nucleic-acid assay
Details: Homo sapiens

>  <MOL>
c1cc(-c2cnc(-c3ccc(CN4CCOCC4)cc3)o2)cc(-c2cnc(-c3ccc(CN4CCOCC4)cc3)o2)c1

>  <ΔTm>
6 °C

$$$$
>  <MOL>
CN1CCN(Cc2ccc(-c3ncc(-c4cccc(-c5cnc(-c6ccc(CN7CCN(C)CC7)cc6)o5)c4)o3)cc2)CC1

>  <ΔTm>
16 °C

$$$$
>  <MOL>
c1cc(-c2cnc(-c3ccc(CN4CCCCCC4)cc3)o2)cc(-c2cnc(-c3ccc(CN4CCCCCC4)cc3)o2)c1

>  <ΔTm>
9 °C

$$$$
>  <MOL>
CN1CCN(CCc2ccc(-c3ncc(-c4cccc(-c5cnc(-c6ccc(CCN7CCN(C)CC7)cc6)o5)c4)o3)cc2)CC1

>  <ΔTm>
23 °C

$$$$
